Recorded pKd by entry
Target: biotinylated human DLL3 protein expressed as a human IgG1 fusion protein (human) (UniProt Q9NYJ7)
Sequence (Q9NYJ7 other isoform, or with tags, fused parts or gaps): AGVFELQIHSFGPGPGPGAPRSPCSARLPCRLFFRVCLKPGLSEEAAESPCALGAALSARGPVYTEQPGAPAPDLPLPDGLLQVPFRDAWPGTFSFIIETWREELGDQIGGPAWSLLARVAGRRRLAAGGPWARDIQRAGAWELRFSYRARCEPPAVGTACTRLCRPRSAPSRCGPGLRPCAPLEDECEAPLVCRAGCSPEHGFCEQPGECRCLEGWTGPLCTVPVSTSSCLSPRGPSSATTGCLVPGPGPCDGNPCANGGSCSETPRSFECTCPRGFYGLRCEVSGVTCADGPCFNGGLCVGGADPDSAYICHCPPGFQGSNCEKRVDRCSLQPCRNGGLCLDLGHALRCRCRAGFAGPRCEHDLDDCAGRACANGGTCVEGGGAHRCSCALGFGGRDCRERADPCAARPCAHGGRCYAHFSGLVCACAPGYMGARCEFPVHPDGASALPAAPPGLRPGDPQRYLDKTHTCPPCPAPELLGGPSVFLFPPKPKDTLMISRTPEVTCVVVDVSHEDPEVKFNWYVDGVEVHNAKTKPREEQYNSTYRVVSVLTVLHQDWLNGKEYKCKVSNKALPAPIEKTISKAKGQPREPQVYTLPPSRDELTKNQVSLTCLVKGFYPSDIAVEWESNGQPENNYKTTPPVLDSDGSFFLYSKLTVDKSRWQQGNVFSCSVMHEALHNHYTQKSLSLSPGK
Test: Octet BLI; biotinylated huDLL3-IgG1 fusion on streptavidin tips; single 50 nM; conditioned medium
Please express pKd as -log10 of the molar concentration.

Example cases with answers are listed next.
BINDER	ASSAY VALUE
anti-DLL3 trispecific protein 1D06 (protein, part only; not given: anti-CD3 fragment and anti-albumin sdAb, part only) chain, part: EVQLVESGGGLVQPGGSLTLSCVASGSTSSINAMGWYRRAPGKQRELVAGISSDNSKVYADSVKGRFTISRDNAKNSVYLQMNSLRAEDTAVYYCYYFRTVHGSSMRYWGQGTLVTVSSGGGGSGGGSGGGGSGGGSHHHHHH	8.17
anti-DLL3 trispecific protein 2H011 (protein, part only; not given: anti-CD3 fragment and anti-albumin domain, part only) chain, part: EVQLVESGGGLVQPGGSLTLSCVASGSTSRINAMGWYRRAPGKQRELVAGISSDGSKVYADSVKGRFTISRDNAKNSVYLQMNSLRAEDTAVYYCYYFRRVSGSSMRYWGQGTLVTVSSGGGGSGGGSGGGGSGGGSHHHHHH	8.30
anti-DLL3 trispecific protein 2F02 (protein, part only; not given: anti-CD3 fragment and anti-albumin sdAb, part only) chain, part: EVQLVESGGGLVQPGGSLTLSCVASGSTSSINAVGWYRRAPGKQRELVAGISSDGSKVYAGSVKGRFTISRDNAKNSVYLQMNSLRAEDTAVYYCYYFRTVSGSYMRYWGQGTLVTVSSGGGGSGGGSGGGGSGGGSHHHHHH	8.02

Can you look up the measured pKd of anti-DLL3 trispecific protein 4A05 (protein, part only; not given: anti-CD3 and anti-albumin domains, part only) chain, part: EVQLVESGGGLVQPGGSLTLSCAASGSSVSFLSLAWYRQAPGKKRELVAGISADGSTDYIDSVKGRFTISRDNAKNSVYLQMNSLRAEDTAVYYCYAYRWKTRRTYWGQGTLVTVSSGGGGSGGGSGGGGSGGGSHHHHHH for me?
8.03
